These data points were gathered from paper PMC2756588.

# SPOT intensity per record follows
- assay_target: T1, Bud14, P27637
- T1 sequence (P27637 247-328, looked up): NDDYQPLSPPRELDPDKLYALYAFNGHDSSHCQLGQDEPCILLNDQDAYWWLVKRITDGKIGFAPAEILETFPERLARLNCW
- measurement_protocol: SPOT array
- protocol_conditions: median of control spots 956
The response must contain the number and no unit.

INSERT INTO assay_data (binder, quantity, measured_number) VALUES
  ('KDKSRPPRPPPKPLH', 'SPOT intensity', 0);

Would you kindly share the measured SPOT intensity for `GERSRPLVISILSSA` ? 14

Also check `MKRSRPSRSIPYTTP` 7

Also check `NGRRRPKFRVQLSGN` 23
